PROCEDURE TEXT: HepG2 cell cytotoxicity, cytotoxicity control, set 4 (AID 504910)
EXPERIMENTAL CONTEXT: series mostly up to 50 µM
Potency and affinity values are given separately. Calls of active or inactive are those of the source. How the calls were made is not given here.
MEASURED PROPERTY: outcome

Cc1nc(SCC(=O)NCCC(C)C)[nH]c(=O)c1C; inactive
COC(=O)C(C)Oc1ccc(Cc2ncc(C(F)(F)F)cc2Cl)cc1 (stereo not drawn); inactive
Cc1nc(SCC(=O)N(C)c2ccccc2)[nH]c(=O)c1C; inactive
